molecular target: GRID2IP_2, A4D2P6; assay: holdup assay; set-up: key: below the threshold = too weak to quantify, mostly under pKd 3.1 to 4; conditions: plain residues with an end cap or a label only (N-terminal biotin on a linker: ado-ado)
Sequence (A4D2P6 272-370): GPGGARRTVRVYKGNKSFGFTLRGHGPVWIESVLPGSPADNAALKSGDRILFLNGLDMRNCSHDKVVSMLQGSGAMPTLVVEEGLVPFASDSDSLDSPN
MEASUREMENT_KIND: pKd

>  <BINDER>
QHKTQLQTLI [BPIFA2, Q96DR5]

>  <MEASUREMENT_KIND>
pKd

>  <REPORTED_VALUE>
3.93

$$$$
>  <BINDER>
EVEEFPETSV [TRPV3, Q8NET8]

>  <MEASUREMENT_KIND>
pKd

>  <REPORTED_VALUE>
4.39

$$$$
>  <BINDER>
VKPQVSESKL [ACOT8, O14734]

>  <MEASUREMENT_KIND>
pKd

>  <REPORTED_VALUE>
3.55

$$$$
>  <BINDER>
PRAEAEDSFL [PDGFRB, P09619]

>  <MEASUREMENT_KIND>
pKd

>  <REPORTED_VALUE>
3.84

$$$$
>  <BINDER>
PKRSFIESNV [TANC1, Q9C0D5]

>  <MEASUREMENT_KIND>
pKd

>  <REPORTED_VALUE>
3.53

$$$$

Data provenance: paper PMC9482650
